Origin of values: patent CN117946265A

// 抑制cAMP活性 IC50 lookup, one value per entry
Biological target: T1, 人CX3CL1胞外区蛋白 CX3CL1(Q25-Q341)-6xHis (human, UniProt P78423 25-341)
T1 sequence: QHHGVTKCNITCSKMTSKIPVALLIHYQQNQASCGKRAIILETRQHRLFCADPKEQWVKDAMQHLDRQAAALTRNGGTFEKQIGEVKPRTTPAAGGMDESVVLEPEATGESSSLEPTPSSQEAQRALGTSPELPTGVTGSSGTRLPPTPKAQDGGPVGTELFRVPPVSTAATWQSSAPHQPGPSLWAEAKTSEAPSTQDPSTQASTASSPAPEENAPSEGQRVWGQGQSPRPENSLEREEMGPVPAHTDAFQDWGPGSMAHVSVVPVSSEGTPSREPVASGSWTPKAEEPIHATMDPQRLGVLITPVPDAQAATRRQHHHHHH
Assay: cell-based or functional assay
Kindly answer with a numeric value in nM, unit omitted.

The cases that follow already have their 抑制cAMP活性 IC50 on record.
mAb022 (antibody, V domains shown, Murine monoclonal antibody purified from hybridoma supernatant; also called 15F7B2) VH: EVQLQQSGPELVKPGASVKISCKASGYTFTDYYMNWVKQSHGKSLEWIGDINPNNGGTNYNQKFKGKATLTVDKSSSTAYMELRSLTSEDSAVFYCASSGNSYVDYWGQGTTLTVSS VL: DIVMTQSHKFMSTSVGDRVNITCKASQDVSTAVAWYQQKPGQSPKLLIYWASTRHTGVPDRFTGSGSGTDYTLTISSVQAEDLALYYCQQHYSSPYTFGGGTKLEIK = 0.8
C032QG (antibody, human IgG2, kappa, V domains shown, Chimeric IgG2 mutant of C032 removing the NG hot spot of HCDR2 (NG to QG)) VH: EVQLQQSGPELVKPGASVKISCKASGYTFTDYYMNWVKQSHGKSLEWIGDINPNQGGTSYNQKFKGKATLTVDKSSSTAYMELRSLTSEDSAVYYCASSGNSYVDYWGQGTTLTVSS VL: DIVMTQSHKFMSTSVGDRVSITCKASQDVSTAVAWYQQKPGQSPKLLIYWASTRHTGVPDRFTGSGSGTDYTLTISSVQAEDLALYYCQQHYSSPYTFGGGTKLEIKR = 3.96
C032NA (antibody, human IgG2, kappa, V domains shown, Chimeric IgG2 mutant of C032 removing the NG hot spot of HCDR2 (NG to NA)) VH: EVQLQQSGPELVKPGASVKISCKASGYTFTDYYMNWVKQSHGKSLEWIGDINPNNAGTSYNQKFKGKATLTVDKSSSTAYMELRSLTSEDSAVYYCASSGNSYVDYWGQGTTLTVSS VL: DIVMTQSHKFMSTSVGDRVSITCKASQDVSTAVAWYQQKPGQSPKLLIYWASTRHTGVPDRFTGSGSGTDYTLTISSVQAEDLALYYCQQHYSSPYTFGGGTKLEIKR = 3.63

Lookup: Tell me the measured 抑制cAMP活性 IC50 of mAb032 (antibody, V domains shown, Murine monoclonal antibody purified from hybridoma supernatant; also called 18H6F1) VH: EVQLQQSGPELVKPGASVKISCKASGYTFTDYYMNWVKQSHGKSLEWIGDINPNNGGTSYNQKFKGKATLTVDKSSSTAYMELRSLTSEDSAVYYCASSGNSYVDYWGQGTTLTVSS VL: DIVMTQSHKFMSTSVGDRVSITCKASQDVSTAVAWYQQKPGQSPKLLIYWASTRHTGVPDRFTGSGSGTDYTLTISSVQAEDLALYYCQQHYSSPYTFGGGTKLEIK , please.
Found: 1.07

Lookup: Tell me the measured 抑制cAMP活性 IC50 of HumAb022-4 (antibody, human IgG2, kappa, V domains shown, Full-length humanized IgG2/kappa antibody) VH: EVQLVQSGAEVKKPGATVKISCKASGYTFTDYYMNWVQQAPGKSLEWMGDINPNQGGTNYNQKFKGRVTLTVDKSTSTAYMELSSLRSEDTAVYYCASSGNSYVDYWGQGTTVTVSS VL: DIQMTQSPSSLSASVGDRVTITCKASQDVSTAVAWYQQKPGKAPKLLLYWASTRHTGVPSRFSGSGSGTDYTLTISSLQPEDFATYYCQQHYSSPYTFGGGTKVEIKR , please.
Found: 2.69

Lookup: Tell me the measured 抑制cAMP活性 IC50 of C032 (antibody, human IgG2, kappa, V domains shown, Human-mouse chimeric antibody of mAb032 with human IgG2 constant region, expressed in CHOK1; also called 嵌合抗体C032) VH: EVQLQQSGPELVKPGASVKISCKASGYTFTDYYMNWVKQSHGKSLEWIGDINPNNGGTSYNQKFKGKATLTVDKSSSTAYMELRSLTSEDSAVYYCASSGNSYVDYWGQGTTLTVSS VL: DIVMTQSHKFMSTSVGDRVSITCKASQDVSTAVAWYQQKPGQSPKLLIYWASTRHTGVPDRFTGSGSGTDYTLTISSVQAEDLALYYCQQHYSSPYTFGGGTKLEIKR , please.
Found: 3.4
